Experiment: Ascending multiple dose pharmacokinetics of enteric coated capsules in healthy subjects
Assay type: in vivo, human
Details: human, plasma, po, 25 mg, healthy subjects, multiple oral doses (q12 h) 25 mg, day 14; read-out: t1/2 (Mean) (converted)
Procedure: Ascending multiple doses of 25, 50, 75, 100, 150, and 250 mg Compound A.HCl were administered as twice-daily regimen (q12h) for 14 days in cohorts of 8 healthy subjects (6 active and 2 placebo). Blood samples for Compound A.HCl analysis were obtained on days 1 and 14 within 2 hours of test article administration and at various time points from 0.5 to 48 hours after test article administration. Doses were administered orally after an overnight fast of at least 10 hours on these 2 days. […]

| compound | half-life |
| --- | --- |
| Cl.c1cc2c3c(c1)[C@H]1CCC[C@H]1CN3CCNC2 [Compound A.HCl] | 6.35 h |

----------
assay: Ascending multiple dose pharmacokinetics of enteric coated capsules in healthy subjects; assay type: in vivo, human; details: human, plasma, po, 50 mg, healthy subjects, multiple oral doses (q12 h) 50 mg, day 14; read-out: Cmax (Mean)

| compound | unitTag | Cmax |
| --- | --- | --- |
| Cl.c1cc2c3c(c1)[C@H]1CCC[C@H]1CN3CCNC2 [Compound A.HCl] | ng/mL | 3.39 |

----------
assay: Ascending multiple dose pharmacokinetics of enteric coated capsules in schizophrenic patients; format: in vivo, human; conditions: human, plasma, po, 100 mg, Schizophrenia patients, single oral dose 100 mg, day 1; read-out: Tmax (Mean)

| molecule | Tmax / h |
| --- | --- |
| Cl.c1cc2c3c(c1)[C@H]1CCC[C@H]1CN3CCNC2 [Compound A.HCl] | 4.8 |

----------
test: Ascending multiple dose pharmacokinetics of enteric coated capsules in healthy subjects; assay type: in vivo, human; conditions: human, plasma, po, 75 mg, healthy subjects, multiple oral doses (q12 h) 75 mg, day 14; read-out: t1/2 (Mean) (converted)
readoutKind: half-life (h)

| compound | readoutKind | unitTag | measValue |
| --- | --- | --- | --- |
| Cl.c1cc2c3c(c1)[C@H]1CCC[C@H]1CN3CCNC2 [Compound A.HCl] | half-life | h | 6.45 |

----------
experiment: Ascending multiple dose pharmacokinetics of enteric coated capsules in healthy subjects; type: in vivo, human; conditions: human, plasma, po, 50 mg, healthy subjects, single oral dose 50 mg, day 1; read-out: Tmax (Mean)
readoutKind: Tmax (h)

| compound | readoutKind | unitTag | measValue |
| --- | --- | --- | --- |
| Cl.c1cc2c3c(c1)[C@H]1CCC[C@H]1CN3CCNC2 [Compound A.HCl] | Tmax | h | 5.3 |

----------
test: Ascending multiple dose pharmacokinetics of enteric coated capsules in healthy subjects; assay type: in vivo, human; details: human, plasma, po, 50 mg, healthy subjects, multiple oral doses (q12 h) 50 mg, day 14; read-out: t1/2 (Mean) (converted)

| compound | half-life, h |
| --- | --- |
| Cl.c1cc2c3c(c1)[C@H]1CCC[C@H]1CN3CCNC2 [Compound A.HCl] | 7.64 |

----------
assay: Ascending multiple dose pharmacokinetics of enteric coated capsules in healthy subjects; type: in vivo, human; conditions: human, plasma, po, 50 mg, healthy subjects, single oral dose 50 mg, day 1; read-out: Tmax (Geom. Mean)

| compound | Tmax / h |
| --- | --- |
| Cl.c1cc2c3c(c1)[C@H]1CCC[C@H]1CN3CCNC2 [Compound A.HCl] | 5 |

----------
assay: Ascending multiple dose pharmacokinetics of enteric coated capsules in healthy subjects; type: in vivo, human; conditions: human, plasma, po, 100 mg, healthy subjects, multiple oral doses (q12 h) 100 mg, day 14; read-out: Cmax (Mean)

| compound | Cmax / ng/mL |
| --- | --- |
| Cl.c1cc2c3c(c1)[C@H]1CCC[C@H]1CN3CCNC2 [Compound A.HCl] | 7.81 |

----------
assay: Ascending multiple dose pharmacokinetics of enteric coated capsules in schizophrenic patients; format: in vivo, human; conditions: human, plasma, po, 150 mg, Schizophrenia patients, multiple oral doses (q12 h) 150 mg, day 10; read-out: Cmax (Geom. Mean)
readoutKind: Cmax (ng/mL)

| molecule | readoutKind | measValue |
| --- | --- | --- |
| Cl.c1cc2c3c(c1)[C@H]1CCC[C@H]1CN3CCNC2 [Compound A.HCl] | Cmax | 6.67 |

----------
test: Ascending multiple dose pharmacokinetics of enteric coated capsules in healthy subjects; format: in vivo, human; conditions: human, plasma, po, 250 mg, healthy subjects, multiple oral doses (q12 h) 250 mg, day 14; read-out: Tmax (Mean)
readoutKind: Tmax (h)

| compound | readoutKind | measValue |
| --- | --- | --- |
| Cl.c1cc2c3c(c1)[C@H]1CCC[C@H]1CN3CCNC2 [Compound A.HCl] | Tmax | 6.2 |

----------
test: Ascending multiple dose pharmacokinetics of enteric coated capsules in schizophrenic patients; format: in vivo, human; conditions: human, plasma, oral, schizophrenic patients, single and multiple dose administration, enteric-coated formulation; read-out: mean Tmax
readoutKind: Tmax

| molecule | measValue |
| --- | --- |
| Cl.c1cc2c3c(c1)[C@H]1CCC[C@H]1CN3CCNC2 [Compound A.HCl] | 4 to 5 h |

----------
test: Ascending multiple dose pharmacokinetics of enteric coated capsules in schizophrenic patients; type: in vivo, human; conditions: human, plasma, po, 150 mg, Schizophrenia patients, single oral dose 150 mg, day 1; read-out: t1/2 (Mean) (converted)

| molecule | half-life / h |
| --- | --- |
| Cl.c1cc2c3c(c1)[C@H]1CCC[C@H]1CN3CCNC2 [Compound A.HCl] | 9.49 |

----------
test: Ascending multiple dose pharmacokinetics of enteric coated capsules in schizophrenic patients; assay type: in vivo, human; details: human, plasma, po, 100 mg, Schizophrenia patients, single oral dose 100 mg, day 1; read-out: Cmax (Geom. Mean)
readoutKind: Cmax (ng/mL)

| compound | measValue |
| --- | --- |
| Cl.c1cc2c3c(c1)[C@H]1CCC[C@H]1CN3CCNC2 [Compound A.HCl] | 2.07 |

----------
test: Ascending multiple dose pharmacokinetics of enteric coated capsules in schizophrenic patients; assay type: in vivo, human; settings: human, plasma, po, 250 mg, Schizophrenia patients, multiple oral doses (q12 h) 250 mg, day 10; read-out: AUCss (AUC0-12) (Geom. Mean)

| molecule | AUC(0-t) |
| --- | --- |
| Cl.c1cc2c3c(c1)[C@H]1CCC[C@H]1CN3CCNC2 [Compound A.HCl] | 134 ng·h/mL |

----------
assay: Ascending multiple dose pharmacokinetics of enteric coated capsules in healthy subjects; format: in vivo, human; conditions: human, plasma, po, 50 mg, healthy subjects, multiple oral doses (q12 h) 50 mg, day 14; read-out: AUCss (AUC0-12) (Mean)
readoutKind: AUC(0-t)

| compound | readoutKind | measValue |
| --- | --- | --- |
| Cl.c1cc2c3c(c1)[C@H]1CCC[C@H]1CN3CCNC2 [Compound A.HCl] | AUC(0-t) | ~26.5 ng·h/mL |

----------
Assay: Ascending multiple dose pharmacokinetics of enteric coated capsules in healthy subjects
Format: in vivo, human
Details: human, plasma, po, 100 mg, healthy subjects, single oral dose 100 mg, day 1; read-out: AUC0-∞ (Mean)
Protocol: Ascending multiple doses of 25, 50, 75, 100, 150, and 250 mg Compound A.HCl were administered as twice-daily regimen (q12h) for 14 days in cohorts of 8 healthy subjects (6 active and 2 placebo). Blood samples for Compound A.HCl analysis were obtained on days 1 and 14 within 2 hours of test article administration and at various time points from 0.5 to 48 hours after test article administration. Doses were administered orally after an overnight fast of at least 10 hours on these 2 days. […]

| molecule | AUC(0-inf) / ng·h/mL |
| --- | --- |
| Cl.c1cc2c3c(c1)[C@H]1CCC[C@H]1CN3CCNC2 [Compound A.HCl] | 55.5 |

----------
experiment: Ascending multiple dose pharmacokinetics of enteric coated capsules in healthy subjects; type: in vivo, human; details: human, plasma, po, 150 mg, healthy subjects, single oral dose 150 mg, day 1; read-out: Cmax (Geom. Mean)
readoutKind: Cmax (ng/mL)

| molecule | measValue |
| --- | --- |
| Cl.c1cc2c3c(c1)[C@H]1CCC[C@H]1CN3CCNC2 [Compound A.HCl] | 3.67 |

----------
experiment: Ascending multiple dose pharmacokinetics of enteric coated capsules in healthy subjects; type: in vivo, human; conditions: human, plasma, po, 25 mg, healthy subjects, multiple oral doses (q12 h) 25 mg, day 14; read-out: Tmax (Geom. Mean)
readoutKind: Tmax

| compound | measValue |
| --- | --- |
| Cl.c1cc2c3c(c1)[C@H]1CCC[C@H]1CN3CCNC2 [Compound A.HCl] | 3.7 h |

----------
test: Ascending multiple dose pharmacokinetics of enteric coated capsules in healthy subjects; format: in vivo, human; conditions: human, plasma, po, 100 mg, healthy subjects, single oral dose 100 mg, day 1; read-out: AUC0-∞ (Geom. Mean)
readoutKind: AUC(0-inf) (ng·h/mL)

| compound | measValue |
| --- | --- |
| Cl.c1cc2c3c(c1)[C@H]1CCC[C@H]1CN3CCNC2 [Compound A.HCl] | 47.2 |
